experimental.target: wild-type CfEcR-A/BCDEF (Choristoneura fumiferana, UniProt O77240)
Construct: "The full-length spruce budworm Choristoneura fumiferana EcR (“CfEcR-A/BCDEF”); b350 and b353 describe plain full-length EcR translated in vitro
protocol.details: 3H-RH2485 competition ligand binding, wild-type CfEcR-A/BCDEF with CfUSP
Please note: IC50 exactly at 90 nM is Not fulfilled. Only values below 90 nM get Fulfilled.

Take a look at these entries with their results.
[[record]]
compound = "CC(C)CC[C@@H](O)[C@](C)(O)[C@H]1CC[C@@]2(O)C3=CC(=O)[C@@H]4C[C@@H](O)[C@@H](O)C[C@]4(C)[C@H]3CC[C@]12C [Ponasterone A, ponasterone A]"
label = "Not fulfilled"

[[record]]
compound = "COc1cccc(C(=O)NN(C(=O)c2cc(C)cc(C)c2)C(C)(C)C)c1C [RH-2485]"
label = "Not fulfilled"

[[record]]
compound = "CCc1ccc(C(=O)NN(C(=O)c2cc(C)cc(C)c2)C(C)(C)C)cc1 [RH-5992]"
label = "Not fulfilled"

[[record]]
compound = "CC(C)CC[C@@H](O)[C@](C)(O)[C@H]1CC[C@@]2(O)C3=CC(=O)[C@]4(O)C[C@@H](O)[C@@H](O)C[C@]4(C)[C@H]3[C@H](O)C[C@]12C [Muristerone A, muristeroneA]"
label = "Not fulfilled"

[[record]]
compound = "CCc1c(OC)cccc1C(=O)NN(C(=O)c1cc(C)cc(C)c1)C(C)(C)C [GS ™-E]"
label = "Fulfilled"


Let's switch to this compound now.
Asked: IC50 under 90 nM? Item: Cc1cc(C)cc(C(=O)N(NC(=O)c2ccc3c(c2C)OCCO3)C(C)(C)C)c1 [RH-125020]
Given back: Fulfilled
